Data credit: patent US5401490A

Exercise: for every item that follows, state its recorded tissue uptake at 2 h.
experiment: Tissue distribution of radioactivity after intravenous injection; type: in vivo, BALB/C mice; conditions: mouse, blood, iv; 2 h, i.v.; read-out: Percent of Injected Dose per Gram, Blood

Any idea what its tissue uptake at 2 h is? The molecule is O=[N+]([O-])c1nccn1[C@@H]1O[C@H](CI)[C@H](O)[C@H](O)[C@H]1O
0.53 %ID/g

Query O=[N+]([O-])c1nccn1[C@@H]1O[C@H](CI)[C@@H](O)[C@@H]1O next
0.91 %ID/g

----------
test: Tissue distribution of radioactivity after intravenous injection; format: in vivo, BALB/C mice; conditions: mouse, intestine, iv; 0.25 h, i.v.; read-out: Percent of Injected Dose per Gram, Intestine
What tissue uptake at 0.25 h was measured for each of the following?
Only the number, expressed in %ID/g, is required.

Entry under review: O=[N+]([O-])c1nccn1[C@@H]1O[C@H](CI)[C@@H](O)[C@@H]1O . Reported tissue uptake at 0.25 h?
5.42

Another molecule to look at: O=[N+]([O-])c1nccn1[C@@H]1O[C@H](CI)[C@H](O)[C@H](O)[C@H]1O
6.82

----------
I'd appreciate it if you could supply tissue uptake at 4 h values for the items below.
experiment: Tissue distribution of radioactivity after intravenous injection; assay type: in vivo, BALB/C mice; settings: mouse, liver, iv; 4 h, i.v.; read-out: Percent of Injected Dose per Gram, Liver
Enter your answer as a number in %ID/g; do not include the unit.

I have this compound here, O=[N+]([O-])c1nccn1[C@@H]1O[C@H](CI)[C@@H](O)[C@@H]1O [IAZA] , and I need its recorded tissue uptake at 4 h.
0.95

Query O=[N+]([O-])c1nccn1[C@@H]1O[C@H](CI)[C@H](O)[C@H](O)[C@H]1O [IAZG] next
0.43

----------
Test: Tissue distribution of radioactivity after intravenous injection
Assay type: in vivo, BALB/C mice
Settings: mouse, muscle, iv; 2 h, i.v.; read-out: Percent of Injected Dose per Gram, Muscle
Source text: Tables 1 and 2 show the percent of injected IAZG and IAZA respectively per gram of wet tissue for selected tissues excised from BALB/C mice bearing EMT-6 tumors. This tumor model is known to have a high hypoxic fraction (0.33) (16). […] Hepatobiliary excretion may play a role in blood clearance as evidenced by elevated liver radioactivity and the appearance of activity in the intestine. […] This supposition is supported by the persistence of liver radioactivity at longer time periods. […]
Kindly supply the reported tissue uptake at 2 h values for the records listed here.
# unit: %ID/g | format: bare number

I'd like to know its tissue uptake at 2 h. The compound in question is O=[N+]([O-])c1nccn1[C@@H]1O[C@H](CI)[C@@H](O)[C@@H]1O [IAZA]
0.69

What do we get for O=[N+]([O-])c1nccn1[C@@H]1O[C@H](CI)[C@H](O)[C@H](O)[C@H]1O [IAZG] ?
0.34

----------
assay: Tissue distribution of radioactivity after intravenous injection; type: in vivo, BALB/C mice; conditions: mouse, stomach, iv; 8 h, i.v.; read-out: Percent of Injected Dose per Gram, Stomach
MEASURED_ATTRIBUTE: tissue uptake at 8 h (%ID/g)
// note: answer is a bare numeric in %ID/g

I have this compound here, O=[N+]([O-])c1nccn1[C@@H]1O[C@H](CI)[C@H](O)[C@H](O)[C@H]1O , and I need its recorded tissue uptake at 8 h.
0.42

How about this compound: O=[N+]([O-])c1nccn1[C@@H]1O[C@H](CI)[C@@H](O)[C@@H]1O
0.87

----------
experiment: Tissue distribution of radioactivity after intravenous injection; format: in vivo, BALB/C mice; conditions: mouse, bone, iv; 8 h, i.v.; read-out: Percent of Injected Dose per Gram, Bone
MEASURED_ATTRIBUTE: tissue uptake at 8 h (%ID/g)
A number alone suffices; assume %ID/g.

So what's the measured tissue uptake at 8 h for this one? O=[N+]([O-])c1nccn1[C@@H]1O[C@H](CI)[C@@H](O)[C@@H]1O
0.08

----------
I'd be grateful if you could share measured tissue uptake at 4 h for these entries.
assay: Tissue distribution of radioactivity after intravenous injection; assay type: in vivo, BALB/C mice; details: mouse, kidney, iv; 4 h, i.v.; read-out: Percent of Injected Dose per Gram, Kidney
Just the number in %ID/g, nothing appended.

Sample O=[N+]([O-])c1nccn1[C@@H]1O[C@H](CI)[C@@H](O)[C@@H]1O — what was its tissue uptake at 4 h?
0.66

Follow-up item: O=[N+]([O-])c1nccn1[C@@H]1O[C@H](CI)[C@H](O)[C@H](O)[C@H]1O
1.1

----------
test: Tissue distribution of radioactivity after intravenous injection; format: in vivo, BALB/C mice; conditions: mouse, muscle, iv; 1 h, i.v.; read-out: Percent of Injected Dose per Gram, Muscle
MEASURED_ATTRIBUTE: tissue uptake at 1 h (%ID/g)
Answer with a number only, understood to be in %ID/g.

Returns the measured tissue uptake at 1 h for the input molecule. Input: O=[N+]([O-])c1nccn1[C@@H]1O[C@H](CI)[C@@H](O)[C@@H]1O [IAZA]
2.19

Entry O=[N+]([O-])c1nccn1[C@@H]1O[C@H](CI)[C@H](O)[C@H](O)[C@H]1O [IAZG] please
0.37

----------
test: Tissue distribution of radioactivity after intravenous injection; format: in vivo, BALB/C mice; settings: mouse, blood, iv; 8 h, i.v.; read-out: Percent of Injected Dose per Gram, Blood
MEASURED_ATTRIBUTE: tissue uptake at 8 h (%ID/g)
Answer in %ID/g, number only, no unit symbol.

// lookup tissue uptake at 8 h for O=[N+]([O-])c1nccn1[C@@H]1O[C@H](CI)[C@H](O)[C@H](O)[C@H]1O
0.16

Also need O=[N+]([O-])c1nccn1[C@@H]1O[C@H](CI)[C@@H](O)[C@@H]1O , thanks.
0.14

----------
experiment: Tissue distribution of radioactivity after intravenous injection; assay type: in vivo, BALB/C mice; details: mouse, heart, iv; 2 h, i.v.; read-out: Percent of Injected Dose per Gram, Heart
MEASURED_ATTRIBUTE: tissue uptake at 2 h (%ID/g)
Hi! Could you send only the number? It should be in %ID/g, unit omitted.

Returns the measured tissue uptake at 2 h for the input compound. Input: O=[N+]([O-])c1nccn1[C@@H]1O[C@H](CI)[C@@H](O)[C@@H]1O
1.03

----------
experiment: Tissue distribution of radioactivity after intravenous injection; type: in vivo, BALB/C mice; conditions: mouse, bone, iv; 4 h, i.v.; read-out: Percent of Injected Dose per Gram, Bone
MEASURED_ATTRIBUTE: tissue uptake at 4 h (%ID/g)
The response must be a number in %ID/g with no trailing unit.

What value of measured tissue uptake at 4 h is listed for O=[N+]([O-])c1nccn1[C@@H]1O[C@H](CI)[C@@H](O)[C@@H]1O [IAZA] ?
0.27

----------
experiment: Tissue distribution of radioactivity after intravenous injection; type: in vivo, BALB/C mice; conditions: mouse, carcass, iv; 24 h, i.v.; read-out: Percent of Injected Dose per Gram, Carcass
MEASURED_ATTRIBUTE: tissue uptake at 24 h (%ID/g)
Just the number please, in %ID/g, no unit attached.

Quick one: tissue uptake at 24 h of O=[N+]([O-])c1nccn1[C@@H]1O[C@H](CI)[C@@H](O)[C@@H]1O ?
0.038

----------
assay: Tissue distribution of radioactivity after intravenous injection; format: in vivo, BALB/C mice; conditions: mouse, lung, iv; 2 h, i.v.; read-out: Percent of Injected Dose per Gram, Lung
MEASURED_ATTRIBUTE: tissue uptake at 2 h

Query: tissue uptake at 2 h; subject: O=[N+]([O-])c1nccn1[C@@H]1O[C@H](CI)[C@@H](O)[C@@H]1O
1.15 %ID/g

Then O=[N+]([O-])c1nccn1[C@@H]1O[C@H](CI)[C@H](O)[C@H](O)[C@H]1O ?
0.61 %ID/g

----------
assay: Tissue distribution of radioactivity after intravenous injection; assay type: in vivo, BALB/C mice; conditions: mouse, carcass, iv; 8 h, i.v.; read-out: Percent of Injected Dose per Gram, Carcass
MEASURED_ATTRIBUTE: tissue uptake at 8 h (%ID/g)
Provide the reading as a plain figure in %ID/g.

What value of tissue uptake at 8 h has been reported for the following molecule? O=[N+]([O-])c1nccn1[C@@H]1O[C@H](CI)[C@@H](O)[C@@H]1O [IAZA]
0.28

----------
assay: Tissue distribution of radioactivity after intravenous injection; assay type: in vivo, BALB/C mice; settings: mouse, muscle, iv; 8 h, i.v.; read-out: Percent of Injected Dose per Gram, Muscle
MEASURED_ATTRIBUTE: tissue uptake at 8 h (%ID/g)
Express it in %ID/g; write the number only.

What value of tissue uptake at 8 h has been recorded for this entry: O=[N+]([O-])c1nccn1[C@@H]1O[C@H](CI)[C@@H](O)[C@@H]1O
0.36

Now consider O=[N+]([O-])c1nccn1[C@@H]1O[C@H](CI)[C@H](O)[C@H](O)[C@H]1O .
0.06
